Listing of recorded pEC50 by entry.
Assayed Target: T1, NKG2A expressed on KHYG-1 cells (endogenous) (human, UniProt P26715 1-233; Q13241 1-179)
T1 construct: whole, on cells; Surface NKG2A copy number of approximately 10-20K; also called KHYG-1 cells expressing endogenous NKG2A; NKG2A-expressing cells
T1 sequence (P26715 whole entry, chain 1 of 2): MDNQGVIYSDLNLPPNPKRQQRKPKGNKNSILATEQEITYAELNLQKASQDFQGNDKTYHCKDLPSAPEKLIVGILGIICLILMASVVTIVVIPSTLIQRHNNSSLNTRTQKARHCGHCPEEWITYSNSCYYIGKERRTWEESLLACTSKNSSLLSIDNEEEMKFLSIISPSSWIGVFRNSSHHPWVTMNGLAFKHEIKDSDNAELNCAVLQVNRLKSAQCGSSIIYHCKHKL
T1 sequence (Q13241 whole entry, chain 2 of 2): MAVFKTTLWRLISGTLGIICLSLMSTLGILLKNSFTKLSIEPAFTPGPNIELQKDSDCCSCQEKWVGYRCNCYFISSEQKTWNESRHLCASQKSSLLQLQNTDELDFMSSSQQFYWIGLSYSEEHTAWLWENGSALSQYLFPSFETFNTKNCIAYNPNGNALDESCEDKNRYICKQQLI
Experiment Summary: flow cytometry on KHYG-1 cells expressing endogenous NKG2A
// scale note: pEC50 = -log10(conc_M); give the bare number

Worked cases, answers included:
{"columns": ["Binder", "Result"],
 "data": [
  ["Antibody Clone A42 (antibody, human IgG1, kappa, V domains shown) VH: EVQLVESGGGLVQPGGSLRLSCAASGFTFSWYYIHWVRQAPGKGLEWVAVIDPISSYTYYADSVKGRFTISADTSKNTAYLQMNSLRAEDTAVYYCARGFDRAMDYWGQGTLVTVSS VL: DIQMTQSPSSLSASVGDRVTITCRASQSVSSAVAWYQQKPGKAPKLLIYSASSLYSGVPSRFSGSRSGTDFTLTISSLQPEDFATYYCQQYYSSPYTFGQGTKVEIKR", 7.57],
  ["Antibody Clone A2 (antibody, human IgG1, kappa, V domains shown) VH: EVQLVESGGGLVQPGGSLRLSCAASGFTFSSYYIHWVRQAPGKGLEWVASYVPEDGYTDYADSVKGRFTISADTSKNTAYLQMNSLRAEDTAVYYCARSSDFIPWTSSGGMDYWGQGTLVTVSS VL: DIQMTQSPSSLSASVGDRVTITCRASQSVSRAVAWYQQKPGKAPKLLIYSASSLHSGVPSRFSGSRSGTDFTLTISSLQPEDFATYYCQQYGSSARTFGQGTKVEIKR", 7.43],
  ["Antibody Clone A11 (antibody, human IgG1, kappa, V domains shown) VH: EVQLVESGGGLVQPGGSLRLSCAASGFTFSWYYIHWVRQAPGKGLEWVAVIDPISSYTYYADSVKGRFTISADTSKNTAYLQMNSLRAEDTAVYYCARGFDRAMDYWGQGTLVTVSS VL: DIQMTQSPSSLSASVGDRVTITCRASKSVSSALAWYQQKPGKAPKLLIYVGSSRYSGVPSRFSGSRSGTDFTLTISSLQPEDFATYYCQQYYSSPYTFGQGTKVEIKR", 8.36]
]}

[ask] GET /values?readout=pEC50&item= Antibody Clone A3 (antibody, human IgG1, kappa, V domains shown) VH: EVQLVESGGGLVQPGGSLRLSCAASGFTFSSYYIHWVRQAPGKGLEWVASISPYDGYTDYADSVKGRFTISADTSKNTAYLQMNSLRAEDTAVYYCARSSDFSPWTSSGGMDYWGQGTLVTVSS VL: DIQMTQSPSSLSASVGDRVTITCRASQSVSSAVAWYQQKPGKAPKLLIYSASSLYSGVPSRFSGSRSGTDFTLTISSLQPEDFATYYCQQYGSSLRTFGQGTKVEIKR
[reply] 9.52
